# target: T1, glucose-dependent insulinotropic peptide (gastric inhibitory polypeptide) receptor (GIPR) (human, UniProt P48546 22-466)
# T1 sequence (looked up): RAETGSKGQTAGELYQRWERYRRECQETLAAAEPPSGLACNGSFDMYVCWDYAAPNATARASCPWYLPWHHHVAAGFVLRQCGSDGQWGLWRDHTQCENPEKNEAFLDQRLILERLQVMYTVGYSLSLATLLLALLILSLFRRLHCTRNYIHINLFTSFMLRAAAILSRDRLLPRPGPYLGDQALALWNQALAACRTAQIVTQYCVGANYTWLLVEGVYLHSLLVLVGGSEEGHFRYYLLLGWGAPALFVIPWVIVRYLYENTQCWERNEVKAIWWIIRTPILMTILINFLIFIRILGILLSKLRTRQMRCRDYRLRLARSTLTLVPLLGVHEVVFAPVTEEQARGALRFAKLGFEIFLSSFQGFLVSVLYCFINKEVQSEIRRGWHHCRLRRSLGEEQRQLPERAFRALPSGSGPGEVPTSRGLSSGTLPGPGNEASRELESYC
# method: cell-based or functional assay
Starred links: 1 amine or outer side, 2 acyl side, 3 side chain; linkers in the order of their positions; H or OH if unused. Non-standard residues stand in square brackets, D forms with d. Groups on a side chain read outwards from the residue. Primed or numbered codes have the meaning given here. No end group written: not given here. *: point of attachment. Dodecylbenzoate = dodecylbenzoyl lipid group; γGlu = O=C(O)[C@H](CCC(=O)[*:2])N[*:1]; Stearoyl = CCCCCCCCCCCCCCCCCC(=O)*; αMeF = C[C@](N)(Cc1ccccc1)C(=O)O; αMeK = C[C@](N)(CCCCN)C(=O)O; Lauroyl = CCCCCCCCCCCC(=O)*; αMeS = C[C@](N)(CO)C(=O)O; PEG2′ = not defined here; Aib = CC(C)(N)C(=O)O; Ahx = NCCCCCC(=O)O
measurement-kind: Primary assay EC50 (cAMP), GIP-R, second run (nM)
Numbers only, in nM.

Use the examples below as a reference point.
H[Aib]EGS[αMeF]TSDV[αMeS]S[αMeF]LEGEAA[αMeK]E[αMeF]IA[αMeF]VVK([Ahx-Dodecylbenzoate])GG-NH2 [SEQ ID NO 176]    27
H[Aib]EGS[αMeF]TSDV[αMeS]S[αMeF]LEGEAAK([PEG2′-Stearoyl])E[αMeF]IA[αMeF]VV[αMeK]GG-NH2 [SEQ ID NO 161]    27
H[Aib]EGS[αMeF]TSDV[αMeS]S[αMeF]LEGEAA[αMeK]E[αMeF]IA[αMeF]VVK([PEG2′-PEG2′-PEG2′-Lauroyl])GG-NH2 [SEQ ID NO 172]    26

Go through the list and state Primary assay EC50 (cAMP), GIP-R, second run for each entry.
1. H[Aib]EGS[αMeF]TSDV[αMeS]S[αMeF]LEGEAA[αMeK]E[αMeF]IA[αMeF]VVK([Ahx-Ahx-Ahx-Dodecylbenzoate])GG-NH2 [SEQ ID NO 178]
2. H[Aib]EGS[αMeF]TSDV[αMeS]S[αMeF]LEGEAA[αMeK]E[αMeF]IA[αMeF]VVK([PEG2′-PEG2′-Lauroyl])GG-NH2 [SEQ ID NO 171]
3. H[Aib]EGS[αMeF]TSDV[αMeS]S[αMeF]LEGEAA[αMeK]E[αMeF]IA[αMeF]VVK([PEG2′-Stearoyl])GG-NH2 [SEQ ID NO 188]
4. H[Aib]EGS[αMeF]TSDV[αMeS]S[αMeF]LEGEAA[αMeK]E[αMeF]IA[αMeF]VVK([PEG2′-PEG2′-Dodecylbenzoate])GG-NH2 [SEQ ID NO 180]
5. H[Aib]EGS[αMeF]TSDV[αMeS]S[αMeF]LEGEAA[αMeK]E[αMeF]IA[αMeF]VVK([PEG2′-PEG2′-PEG2′-Stearoyl])GG-NH2 [SEQ ID NO 190]
6. H[Aib]EGS[αMeF]TSDV[αMeS]S[αMeF]LEGEAA[αMeK]E[αMeF]IA[αMeF]VVK([PEG2′-PEG2′-PEG2′-Stearoyl])GG-NH2 [SEQ ID NO 199]

Solution:
1. 26
2. 27
3. 28
4. 26
5. 26
6. 25

Hi! Can you tell me Primary assay EC50 (cAMP), GIP-R, second run for each of these binders?
1. H[Aib]EGS[αMeF]TSDV[αMeS]S[αMeF]LEGEAA[αMeK]E[αMeF]IA[αMeF]VVK([PEG2′-PEG2′-Stearoyl])GG-NH2 [SEQ ID NO 189]
2. H[Aib]EGS[αMeF]TSDV[αMeS]S[αMeF]LEGEAA[αMeK]E[αMeF]IA[αMeF]VVK([Ahx-Ahx-Dodecylbenzoate])GG-NH2 [SEQ ID NO 177]
3. H[Aib]EGS[αMeF]TSDV[αMeS]S[αMeF]LEGEAA[αMeK]E[αMeF]IA[αMeF]VVK([PEG2′-Dodecylbenzoate])GG-NH2 [SEQ ID NO 179]
4. H[Aib]EGS[αMeF]TSDV[αMeS]S[αMeF]LEGEAA[αMeK]E[αMeF]IA[αMeF]VVK([γGlu-γGlu-Dodecylbenzoate])GG-NH2 [SEQ ID NO 174]
5. H[Aib]EGS[αMeF]TSDV[αMeS]S[αMeF]LEGEAA[αMeK]E[αMeF]IA[αMeF]VVK([PEG2′-PEG2′-PEG2′-Dodecylbenzoate])GG-NH2 [SEQ ID NO 181]
6. H[Aib]EGS[αMeF]TSDV[αMeS]S[αMeF]LEGEAAK([PEG2′-PEG2′-PEG2′-Stearoyl])E[αMeF]IA[αMeF]VV[αMeK]GG-NH2 [SEQ ID NO 163]
7. H[Aib]EGS[αMeF]TSDV[αMeS]S[αMeF]LEGEAAK([PEG2′-PEG2′-PEG2′-Stearoyl])E[αMeF]IA[αMeF]VV[αMeK]GG-NH2 [SEQ ID NO 154]

Solution:
1: 27; 2: 27; 3: 27; 4: 26; 5: 25; 6: 25; 7: 26

Exercise: // Primary assay EC50 (cAMP), GIP-R, second run lookup, key: H[Aib]EGS[αMeF]TSDV[αMeS]S[αMeF]LEGEAAK([PEG2′-PEG2′-Stearoyl])E[αMeF]IA[αMeF]VV[αMeK]GG-NH2 [SEQ ID NO 162]
Solution: 26

The values you see were collected from patent US20200079833A1.
